Data provenance is ChEMBL document CHEMBL1649525.

Test: Cmax in patient with gram-negative bacterial infection at […], iv after 15 mins
Type: ADME, organism-based
Design: route intravenous
Details: human, in vivo
measurementType: Cmax
Report as: number unit

Data request, read-out Cmax, for CCC(C)CCCCC(=O)N[C@@H](CCNCS(=O)(=O)O)C(=O)N[C@H](C(=O)N[C@@H](CCNCS(=O)(=O)O)C(=O)N[C@H]1CCNC(=O)[C@H]([C@@H](C)O)NC(=O)[C@H](CCNCS(=O)(=O)O)NC(=O)[C@H](CCNCS(=O)(=O)O)NC(=O)[C@H](CC(C)C)NC(=O)[C@@H](CC(C)C)NC(=O)[C@H](CCNCS(=O)(=O)O)NC1=O)[C@@H](C)O.CS(=O)(=O)O (stereo partly specified) [COLISTIN METHYLSULPHATE]
2930 ng/mL

###

Assay: Volume of distribution of central compartment in patient with gram-negative bacterial infection at […], iv
Format: ADME, organism-based
Set-up: route intravenous
Conditions: human, in vivo
measurementType: Vd (L)
// return numeric value only (unit: L, not printed)

Data request, read-out Vd, for CCC(C)CCCCC(=O)N[C@@H](CCNCS(=O)(=O)O)C(=O)N[C@H](C(=O)N[C@@H](CCNCS(=O)(=O)O)C(=O)N[C@H]1CCNC(=O)[C@H]([C@@H](C)O)NC(=O)[C@H](CCNCS(=O)(=O)O)NC(=O)[C@H](CCNCS(=O)(=O)O)NC(=O)[C@H](CC(C)C)NC(=O)[C@@H](CC(C)C)NC(=O)[C@H](CCNCS(=O)(=O)O)NC1=O)[C@@H](C)O.CS(=O)(=O)O (stereo partly specified) [COLISTIN METHYLSULPHATE]
13.5

###

Test: Drug concentration at steady state in patient with gram-negative bacterial infection at […], iv after 7 hrs
Assay type: ADME, organism-based
Design: route intravenous
Conditions: human, in vivo, read-out: Css
measurementType: concentration at 7 h (ng/mL)
// return numeric value only (unit: ng/mL, not printed)

Data request, read-out concentration at 7 h, for CCC(C)CCCCC(=O)N[C@@H](CCNCS(=O)(=O)O)C(=O)N[C@H](C(=O)N[C@@H](CCNCS(=O)(=O)O)C(=O)N[C@H]1CCNC(=O)[C@H]([C@@H](C)O)NC(=O)[C@H](CCNCS(=O)(=O)O)NC(=O)[C@H](CCNCS(=O)(=O)O)NC(=O)[C@H](CC(C)C)NC(=O)[C@@H](CC(C)C)NC(=O)[C@H](CCNCS(=O)(=O)O)NC1=O)[C@@H](C)O.CS(=O)(=O)O (stereo partly specified) [COLISTIN METHYLSULPHATE]
2300

###

Assay: Clearance in patient with gram-negative bacterial infection at […], iv
Type: ADME, organism-based
Design: route intravenous
Conditions: human, in vivo
measurementType: clearance (mL/min)
// return numeric value only (unit: mL/min, not printed)

Data request, read-out clearance, for CCC(C)CCCCC(=O)N[C@@H](CCNCS(=O)(=O)O)C(=O)N[C@H](C(=O)N[C@@H](CCNCS(=O)(=O)O)C(=O)N[C@H]1CCNC(=O)[C@H]([C@@H](C)O)NC(=O)[C@H](CCNCS(=O)(=O)O)NC(=O)[C@H](CCNCS(=O)(=O)O)NC(=O)[C@H](CC(C)C)NC(=O)[C@@H](CC(C)C)NC(=O)[C@H](CCNCS(=O)(=O)O)NC1=O)[C@@H](C)O.CS(=O)(=O)O (stereo partly specified) [COLISTIN METHYLSULPHATE]
228
